Task for the reader: assign each of the following molecules its reported %Inh.
Test system: MLK2;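 further: KINOMEscan kinase panel screen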
Settings: concentration: 1 μM, replicates: in singlicate; n = 1
Numeric only. Scale: %

The recorded %Inh for entry Cn1cncc1-c1ccc2ncnc(Nc3ccc(OCc4ccccc4)cc3)c2c1 equals 26

%Inh reading for COc1cc2ncn(-c3cc(OCC4CCCO4)c(C(N)=O)s3)c2cc1OC (centres unmarked) : 0

Entry CCCc1ccc(S(=O)(=O)NC2CCN(c3ccnc(Nc4ccc(F)cc4)n3)C2)cc1 (centres unmarked) , %Inh reported as 0

Sure, the documented %Inh for CN1C(=O)C(Nc2ccc(Cl)c(C(=O)O)c2)=C(c2ccc(Cl)cc2)C1=O is 0

Sample Cl.NC(=O)c1cccc(Nc2nccc(Nc3ccc(Oc4cccc(Cl)c4)c(Cl)c3)n2)c1 ; %Inh observed: 33

Value of measured %Inh for the entry COc1cccc(-c2cc(-c3c[nH]nc3-c3ccccn3)ccn2)c1 : 43

Quick note, %Inh for Cc1cccc(-c2nc(-c3ccc(S(C)(=O)=O)cc3)sc2-c2ccnc(NCCc3ccccc3)c2)c1 landed at 2

Sure, the documented %Inh for Cc1c(O)cccc1Nc1ccnc2ccc(C(F)(F)F)cc12.Cl is 0

The molecule listed as Cl.c1ccc(-c2n[nH]cc2-c2ccnc(-c3ccc(CN4CCOCC4)cc3)c2)nc1 has a reported %Inh of 25

# %Inh (molecule: CS(=O)(=O)c1ccc(-c2c(-c3ncn[nH]3)sc(N3CCOCC3)c2C#N)cc1 ) is 51

The molecule listed as CC(=O)Nc1nc2cnc(Nc3cc(NC(=O)c4cccc(CCC#N)c4)ccc3C)nc2s1 shows %Inh equal to 15

The value of %Inh measured for the molecule COc1ccc(C2=C(Nc3cccc(C(=O)O)c3)C(=O)NC2=O)cc1 turned out to be 0

The recorded %Inh for entry O=C(Nc1ccccc1)Nc1cccc(Oc2ccc3nccn3n2)c1 equals 9

Summary for this molecule, C[C@@H]1CCCCN1c1cc(-c2ccc3c(N)n[nH]c3c2)nc(N)n1 : %Inh is 0

What the record says about COc1cccc(NC(=O)NC2CCN(c3ccnc(Nc4ccc(F)cc4)n3)C2)c1 (centres unmarked) : %Inh is 0

# molecule Cn1ccc2ncnc(Oc3ccc(NC(=O)Nc4ccccc4)cc3)c21 ; its %Inh = 0

Form: molecule = O=C(Nc1n[nH]c2cc(-c3cccc(F)c3F)ccc12)C1CC1 ; %Inh = 0

O=C(Nc1n[nH]c2nc(-c3nccs3)c(Br)cc12)C1CC1 has a reported %Inh of 0

Record Fc1cc(Cl)ccc1Nc1ccnc2cc(I)ccc12 . Reported %Inh: 0

Lookup result for COc1ccc2nc(-c3cccc(C)n3)nc(Nc3ccncc3)c2c1 ; measured %Inh: 0

Memo: Cc1cccc(-c2nc(Nc3ccc4[nH]ncc4c3)c3ccccc3n2)n1 , reported %Inh: 22

Cc1cc(-c2ccc3c(c2)CC[C@@H](N[C@@H](C)c2ccccc2)C3)cnc1N.Cl has a reported %Inh of 15

So for Fc1cccc(COc2nnc(-c3ccc4c(c3)CCO4)o2)c1 , the logged %Inh turned out to be 19

Value of measured %Inh for the entry Nc1ncnc2[nH]c(-c3ccccc3)nc12 : 5

What the record says about Cc1cccc(-c2nc(C)cc(Nc3ccncc3)n2)n1 : %Inh is 0

Quick note, %Inh for Cc1c(Cn2ccn3c(=O)cc(N4CCOCC4)nc23)cccc1C(F)(F)F landed at 0

Data point: Cc1ccc(NC(=O)Nc2cc(C(C)(C)C)nn2-c2ccccc2)cc1 ; %Inh = 0

Measured %Inh, CC(C)(C)c1ccc(C(=O)Nc2cn3cc(-c4cccnc4)ccc3n2)cc1 : 43

Input O=c1cc(N2CCOCC2)nc2n(Cc3cccc(Cl)c3Cl)ccn12 . Output %Inh: 0
